# Target Of Assay: T1, human cholecystokinin-2 receptor (human, UniProt P32239 1-447)
# T1 construct: whole, on cells; also called CCK-2R; CCK-2 receptor
# T1 sequence (looked up): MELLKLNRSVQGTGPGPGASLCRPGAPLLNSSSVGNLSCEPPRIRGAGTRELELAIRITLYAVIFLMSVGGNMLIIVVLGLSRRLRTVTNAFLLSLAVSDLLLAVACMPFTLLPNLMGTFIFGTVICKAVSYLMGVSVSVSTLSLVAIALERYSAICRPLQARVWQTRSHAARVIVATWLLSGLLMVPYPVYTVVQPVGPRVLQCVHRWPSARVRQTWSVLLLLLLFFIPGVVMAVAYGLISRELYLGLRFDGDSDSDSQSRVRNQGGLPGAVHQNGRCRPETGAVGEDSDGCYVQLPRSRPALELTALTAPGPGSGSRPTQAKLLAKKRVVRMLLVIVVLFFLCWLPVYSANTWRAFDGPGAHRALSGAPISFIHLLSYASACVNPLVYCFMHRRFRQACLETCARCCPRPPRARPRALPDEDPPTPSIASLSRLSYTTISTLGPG
# Assay Remarks: SPA competition vs [125I]-CCK-8s, membranes
Starred links: 1 amine or outer side, 2 acyl side, 3 side chain; linkers in the order of their positions; H or OH if unused. Non-standard residues stand in square brackets, D forms with d. *: point of attachment. sY = N[C@@H](Cc1ccc(OS(=O)(=O)O)cc1)C(=O)O; C18 diacid = O=C(O)CCCCCCCCCCCCCCCCC(=O)*; γGlu = O=C(O)[C@H](CCC(=O)[*:2])N[*:1]; NMeF = CN[C@@H](Cc1ccccc1)C(=O)O; dNMeD = CN[C@H](CC(=O)O)C(=O)O; Nle = CCCC[C@H](N)C(=O)O; AEEA = NCCOCCOCC(=O)O
Reported pIC50 values are given for each entry in this list.
pIC50 (log units): -log10 of the concentration in mol/L.

1. {C18 diacid-γGlu-AEEA-AEEA}-D[sY]SGW[Nle][dNMeD][NMeF]-NH2 (SMILES CCCC[C@H](NC(=O)[C@H](Cc1c[nH]c2ccccc12)NC(=O)CNC(=O)[C@H](CO)NC(=O)[C@H](Cc1ccc(OS(=O)(=O)O)cc1)NC(=O)[C@H](CC(=O)O)NC(=O)COCCOCCNC(=O)COCCOCCNC(=O)CC[C@H](NC(=O)CCCCCCCCCCCCCCCCC(=O)O)C(=O)O)C(=O)N(C)[C@H](CC(=O)O)C(=O)N(C)[C@@H](Cc1ccccc1)C(N)=O, X = Nle or Nal)    5.33
2. {C18 diacid-γGlu-AEEA-AEEA}-D[sY]IGW[Nle][dNMeD][NMeF]-NH2 (X = Nle or Nal)    6.47

Continue with the binder presented below.
Query: What value of pIC50 has been recorded for this entry: {C18 diacid-γGlu-AEEA-AEEA}-[sY][Nle]GW[Nle][dNMeD][NMeF]-NH2 (SMILES CCCC[C@H](NC(=O)[C@H](Cc1ccc(OS(=O)(=O)O)cc1)NC(=O)COCCOCCNC(=O)COCCOCCNC(=O)CC[C@H](NC(=O)CCCCCCCCCCCCCCCCC(=O)O)C(=O)O)C(=O)NCC(=O)N[C@@H](Cc1c[nH]c2ccccc12)C(=O)N[C@@H](CCCC)C(=O)N(C)[C@H](CC(=O)O)C(=O)N(C)[C@@H](Cc1ccccc1)C(N)=O, X = Nle or Nal)
Response: 5.19
